System: K562
Assay: Cytotoxicity against human K562 cells after 48 hrs by MTT assay
Type: functional, cell-based
Conditions: K562, 48 h
Please respond with reported pIC50 for every item in the list.
One number for each entry, as −log10 of the molar value.

1. CC[C@@]1(O)C(=O)OCc2c1cc1n(c2=O)Cc2cc3ccccc3nc2-1 [CAMPTOTHECIN] : 5.27
2. COc1ccc2c3nc4cc(Cl)ccc4n(CCCN(C)C)c-3cc(=O)c2c1 : 4.64

// each compound listed below needs its pIC50
1. COc1ccc2nc3c4ccccc4c(=O)cc-3n(CCCN(C)C)c2c1
2. O=c1cc2n(CCCN3CCCCC3)c3ccccc3nc-2c2ccccc12

Reply:
5.26
4.99

Working through the 4 compounds below one at a time, give pIC50 for each.
1. CCN(CC)CCCn1c2cc(=O)c3cc(OC)ccc3c-2nc2ccccc21
2. COc1ccc2c(c1)nc1c3ccccc3c(=O)cc-1n2CCCN(C)C
3. CN(C)CCCn1c2cc(=O)c3ccccc3c-2nc2cccnc21
4. CCN(CC)CCn1c2cc(=O)c3ccccc3c-2nc2ccccc21

Reply:
[4.66, 4.70, 4.43, 4.59]

Quick batch: pIC50 for everything below.
1. CN(C)CCCn1c2cc(=O)c3ccccc3c-2nc2cc(Cl)ccc21
2. O=c1cc2n(CCN3CCCCC3)c3ccccc3nc-2c2ccccc12
3. COc1ccc2c3nc4ccccc4n(CCN(C)C)c-3cc(=O)c2c1
4. CCN(CC)CCCCn1c2cc(=O)c3ccccc3c-2nc2ccccc21

Reply:
1: 4.69; 2: 4.60; 3: 4.74; 4: 4.59

Hi there! I need pIC50 for each item below, if you can.
1. COc1cc([C@@H]2c3cc4c(cc3[C@@H](O[C@@H]3O[C@@H]5CO[C@@H](C)O[C@H]5[C@H](O)[C@H]3O)[C@H]3COC(=O)[C@H]23)OCO4)cc(OC)c1O [ETOPOSIDE]
2. COc1ccc2c3nc4ccc(OC)cc4n(CCCN(C)C)c-3cc(=O)c2c1
3. COc1ccc2c(=O)cc3n(CCCN(C)C)c4ccccc4nc-3c2c1

Reply:
[5.79, 5.06, 5.15]

###

Target: DNA topoisomerase 2-alpha (Homo sapiens) (UniProt P11388)
Sequence (P11388 whole entry): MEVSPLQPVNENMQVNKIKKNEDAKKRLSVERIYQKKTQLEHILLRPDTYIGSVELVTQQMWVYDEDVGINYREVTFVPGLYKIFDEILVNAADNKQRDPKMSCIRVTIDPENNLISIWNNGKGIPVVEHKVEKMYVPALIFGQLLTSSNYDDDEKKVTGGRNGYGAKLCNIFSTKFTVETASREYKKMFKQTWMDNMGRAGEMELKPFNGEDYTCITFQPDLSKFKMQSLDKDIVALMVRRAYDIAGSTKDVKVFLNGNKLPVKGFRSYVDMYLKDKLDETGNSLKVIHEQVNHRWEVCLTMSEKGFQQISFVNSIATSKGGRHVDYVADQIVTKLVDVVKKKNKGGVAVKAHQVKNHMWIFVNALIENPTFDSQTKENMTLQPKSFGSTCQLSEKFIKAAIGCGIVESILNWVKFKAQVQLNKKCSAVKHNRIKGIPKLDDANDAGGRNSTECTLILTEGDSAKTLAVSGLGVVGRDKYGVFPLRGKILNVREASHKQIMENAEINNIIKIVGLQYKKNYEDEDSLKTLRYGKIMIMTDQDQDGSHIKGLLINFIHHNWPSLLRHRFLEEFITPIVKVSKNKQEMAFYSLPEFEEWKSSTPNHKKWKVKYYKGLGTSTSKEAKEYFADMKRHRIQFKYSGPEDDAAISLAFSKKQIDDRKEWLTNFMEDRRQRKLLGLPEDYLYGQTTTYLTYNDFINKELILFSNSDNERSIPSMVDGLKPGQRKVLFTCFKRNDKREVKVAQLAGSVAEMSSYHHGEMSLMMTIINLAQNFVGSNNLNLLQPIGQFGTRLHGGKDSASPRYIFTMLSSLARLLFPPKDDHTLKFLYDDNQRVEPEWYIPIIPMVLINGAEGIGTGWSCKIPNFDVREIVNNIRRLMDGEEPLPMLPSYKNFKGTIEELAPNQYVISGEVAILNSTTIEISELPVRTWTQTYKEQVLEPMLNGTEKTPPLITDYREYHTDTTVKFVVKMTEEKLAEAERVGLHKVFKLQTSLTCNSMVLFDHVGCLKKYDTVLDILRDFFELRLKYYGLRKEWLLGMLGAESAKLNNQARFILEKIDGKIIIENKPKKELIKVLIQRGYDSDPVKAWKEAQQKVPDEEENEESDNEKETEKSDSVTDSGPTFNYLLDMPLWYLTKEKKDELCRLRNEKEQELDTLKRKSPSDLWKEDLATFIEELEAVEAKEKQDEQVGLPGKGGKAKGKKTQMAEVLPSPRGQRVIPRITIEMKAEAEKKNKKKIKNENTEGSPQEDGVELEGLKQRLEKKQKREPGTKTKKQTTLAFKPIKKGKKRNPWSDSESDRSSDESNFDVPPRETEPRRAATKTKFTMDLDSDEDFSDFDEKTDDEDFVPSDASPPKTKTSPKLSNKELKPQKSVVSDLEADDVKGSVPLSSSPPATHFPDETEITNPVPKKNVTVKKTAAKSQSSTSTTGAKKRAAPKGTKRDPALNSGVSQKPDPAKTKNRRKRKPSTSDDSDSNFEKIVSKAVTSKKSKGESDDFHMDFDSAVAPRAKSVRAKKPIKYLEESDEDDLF
Assay: Inhibition of human Topo 2-mediated relaxation of supercoiled pBR322 plasmid at 25 uM after 30 mins by agarose gel electrophoresis
Active and inactive are the calls of the source. No cut-off for these calls is given here.
Output constraint: value belongs to active, inactive

# count of solved cases: 3
1) O=c1cc2n(CCCN3CCCCC3)c3ncccc3nc-2c2ccccc12 : inactive
2) COc1ccc2c3nc4ccc(OC)cc4n(CCCN(C)C)c-3cc(=O)c2c1 : active
3) CN(C)CCCn1c2cc(=O)c3ccccc3c-2nc2cccnc21 : inactive

Now let's try a different one.
Ask: What outcome does the record of this test show for COc1ccc2c(=O)cc3n(CCCN(C)C)c4ccccc4nc-3c2c1 ?
Reply: active

###

Tested on: A549
Test: Cytotoxicity against human A549 cells after 48 hrs by MTT assay
Type: functional, cell-based
Conditions: A549, 48 h
Kindly supply the reported pIC50 values for the records listed here.
Give bare numbers, as −log10 of the molar value.

For orientation, consider the following solved cases.
1) COc1ccc2nc3c4ccccc4c(=O)cc-3n(CCCN(C)C)c2c1 : 4.52
2) CN1CCN(CCCn2c3cc(=O)c4ccccc4c-3nc3ccccc32)CC1 : 4.63
3) O=c1cc2n(CCCN3CCCC3)c3ccccc3nc-2c2ccccc12 : 4.45
4) CN(C)CCCCn1c2cc(=O)c3ccccc3c-2nc2ccccc21 : 4.79
5) O=c1cc2n(CCCN3CCCCC3)c3ncccc3nc-2c2ccccc12 : 4.70
6) CN1CCN(CCn2c3cc(=O)c4ccccc4c-3nc3ccccc32)CC1 : 4.60

Below is a list of compounds. For each, state its recorded pIC50.
1. COc1cc([C@@H]2c3cc4c(cc3[C@@H](O[C@@H]3O[C@@H]5CO[C@@H](C)O[C@H]5[C@H](O)[C@H]3O)[C@H]3COC(=O)[C@H]23)OCO4)cc(OC)c1O [ETOPOSIDE]
2. COc1ccc2c3nc4ccc(OC)cc4n(CCCN(C)C)c-3cc(=O)c2c1
3. CCN(CC)CCn1c2cc(=O)c3ccccc3c-2nc2ccccc21
4. O=c1cc2n(CCCN3CCOCC3)c3ccccc3nc-2c2ccccc12
5. CCN(CC)CCCCn1c2cc(=O)c3ccccc3c-2nc2ccccc21

Reply:
1: 5.05; 2: 4.58; 3: 4.53; 4: 4.34; 5: 4.72

Please give pIC50, item by item, for the list that follows.
1. CN(C)CCCn1c2cc(=O)c3ccccc3c-2nc2cc(Cl)ccc21
2. COc1ccc2c3nc4ccccc4n(CCN(C)C)c-3cc(=O)c2c1
3. CCN(CC)CCCn1c2cc(=O)c3ccccc3c-2nc2ccccc21
4. CN(C)CCCn1c2cc(=O)c3ccccc3c-2nc2ccccc21
5. O=c1cc2n(CCN3CCCCC3)c3ccccc3nc-2c2ccccc12

Reply:
1: 4.42; 2: 4.41; 3: 4.43; 4: 4.87; 5: 4.43

Here are 7 compounds. What values of pIC50 were reported for them?
1. CN(C)CCn1c2cc(=O)c3ccccc3c-2nc2ccccc21
2. COc1ccc2c(c1)nc1c3ccccc3c(=O)cc-1n2CCCN(C)C
3. O=c1cc2n(CCCN3CCCCC3)c3ccccc3nc-2c2ccccc12
4. COc1ccc2c(=O)cc3n(CCCN(C)C)c4ccccc4nc-3c2c1
5. CC[C@@]1(O)C(=O)OCc2c1cc1n(c2=O)Cc2cc3ccccc3nc2-1
6. COc1ccc2c(c1)nc1c3ccc(OC)cc3c(=O)cc-1n2CCCN(C)C
7. COc1ccc2c3nc4cc(Cl)ccc4n(CCCN(C)C)c-3cc(=O)c2c1

Reply:
1: 4.65; 2: 4.59; 3: 4.48; 4: 4.48; 5: 4.58; 6: 4.46; 7: 4.50

For each of the items listed, what is its pIC50?
1. CN(C)CCCn1c2cc(=O)c3ccccc3c-2nc2cccnc21
2. COc1ccc2c3nc4ccccc4n(CCCN(C)C)c-3cc(=O)c2c1
3. CCN(CC)CCCn1c2cc(=O)c3cc(OC)ccc3c-2nc2ccccc21

Reply:
1. 4.69
2. 4.61
3. 4.64

###

System: K562
Assay: Cytotoxicity against human K562 cells after 48 hrs by MTT assay
Assay type: functional, cell-based
Conditions: K562, 48 h
pIC50: −log10 of the molar value.
Each entry gets false if its pIC50 stays under 5, and true if its pIC50 is 5 or above.

Observe how each entry below is paired with its result.
1. O=c1cc2n(CCCN3CCOCC3)c3ccccc3nc-2c2ccccc12 : false
2. CCN(CC)CCCn1c2cc(=O)c3ccccc3c-2nc2ccccc21 : false
3. COc1ccc2c3nc4ccccc4n(CCCN(C)C)c-3cc(=O)c2c1 : true
4. CN1CCN(CCn2c3cc(=O)c4ccccc4c-3nc3ccccc32)CC1 : false
5. CN(C)CCCCn1c2cc(=O)c3ccccc3c-2nc2ccccc21 : true

Now turn to the next compound.
Ask: Is pIC50 for CCCn1c2cc(=O)c3ccccc3c-2nc2ccccc21 at or above 5?
Reply: false

###

Target: DNA topoisomerase 1 (Homo sapiens)
Experiment: Inhibition of Topo 1 (unknown origin)-mediated relaxation of supercoiled pBR322 plasmid at 25 uM after 30 mins by agarose gel electrophoresis
The source made the active and inactive calls. No cut-off for these calls is given here.
Tick one outcome: active, inactive

1. CN1CCN(CCn2c3cc(=O)c4ccccc4c-3nc3ccccc32)CC1 : active
2. CCN(CC)CCCn1c2cc(=O)c3cc(OC)ccc3c-2nc2ccccc21 : inactive
3. COc1ccc2nc3c4ccccc4c(=O)cc-3n(CCCN(C)C)c2c1 : active
4. O=c1cc2n(CCCN3CCCCC3)c3ncccc3nc-2c2ccccc12 : inactive
5. COc1ccc2c(c1)nc1c3ccccc3c(=O)cc-1n2CCCN(C)C : inactive
6. O=c1cc2n(CCCN3CCCCC3)c3ccccc3nc-2c2ccccc12 : inactive
7. CN(C)CCCCn1c2cc(=O)c3ccccc3c-2nc2ccccc21 : active
8. O=c1cc2n(CCN3CCCCC3)c3ccccc3nc-2c2ccccc12 : inactive
9. CN(C)CCn1c2cc(=O)c3ccccc3c-2nc2ccccc21 : active
10. CN(C)CCCn1c2cc(=O)c3ccccc3c-2nc2ccccc21 : active

Here's the next entry for you.
Ask: Could you check what this test reported for COc1ccc2c(c1)nc1c3ccc(OC)cc3c(=O)cc-1n2CCCN(C)C ?
Reply: inactive

###

Target: DNA topoisomerase 1 (Homo sapiens)
Assay: Inhibition of Topo 1 (unknown origin)-mediated relaxation of supercoiled pBR322 plasmid at 25 uM after 30 mins by agarose gel electrophoresis
Active and inactive are the calls of the source. The rule behind the calls is not given here.
metric.name: Topo I relaxation inhibition (active/not active)

1) CN(C)CCCn1c2cc(=O)c3ccccc3c-2nc2cccnc21 : inactive
2) COc1ccc2c3nc4ccccc4n(CCCN(C)C)c-3cc(=O)c2c1 : inactive
